Taken from ChEMBL document CHEMBL4808170.

- System: SJSA-1
- Test summary: Antiproliferative activity against human SJSA-1 cells expressing wild type TP53 incubated for 72 hrs by Sulforhodamine B assay
- Assay type: functional
Measured parameter: GI50 (nM)
Numbers only here, please. The scale is nM.

Memo: `O=C1c2cccc(Cl)c2[C@](OCC2(CO)CC2)(c2ccc(Cl)cc2)N1Cc1ccc(Cl)cc1` , reported GI50: 2000

For this molecule ( `CC(C)(O)c1cc(F)c2c(c1)C(=O)N(Cc1ccc(Cl)cc1)[C@@]2(OCC1(CO)CC1)c1ccc(Cl)cc1` ), measured GI50 is 330

// `CC(C)(O)c1cc(F)c2c(c1)C(=O)N(Cc1ccc(C#N)cn1)[C@@]2(OCC1(CO)CC1)c1ccc(Cl)cc1` : GI50 value = 210

Lookup result for `CC(C)(O)c1cc(F)c2c(c1)C(=O)N(Cc1ccc(Cl)cn1)[C@@]2(OCC1(C(N)=O)CC1)c1ccc(Cl)cc1` ; measured GI50: 230

Lookup result for `C[C@@H](CO[C@]1(c2ccc(Cl)cc2)c2c(F)cc(C(C)(C)O)cc2C(=O)N1Cc1ccc(Cl)cn1)C(N)=O` ; measured GI50: 640

molecule CC(C)(O)c1cc2c(cc1F)C(OCC1(CO)CC1)(c1ccc(Cl)cc1)N(Cc1ccc(Cl)cc1)C2=O (racemic) , GI50 observed: 2100

----------
- Test summary: Plasma clearance in BALB/c mouse at 5 mg/kg, po by HPLC analysis
- Format: ADME, organism-based
If the reported CL/F equals or exceeds 9 mL/min/kg, assign y. If not, assign n.

[Q] Textbook exercise: given the entry `CC(C)(O)c1cc(F)c2c(c1)C(=O)N(Cc1ccc(C#N)cn1)[C@@]2(OCC1(CO)CC1)c1ccc(Cl)cc1` , state whether its CL/F is greater than or equal to 9 mL/min/kg.
[A] y

[Q] Determine whether this molecule has CL/F no lower than 9 mL/min/kg: `CC(C)(O)c1cc(F)c2c(c1)C(=O)N(Cc1ccc(Cl)cn1)[C@@]2(OCC1(O)CC1)c1ccc(Cl)cc1`
[A] y

[Q] Threshold query (CL/F >= 9 mL/min/kg) on `CC(C)(O)c1ccc2c(c1)C(=O)N(Cc1ccc(Cl)cc1)[C@@]2(OCC1(CO)CC1)c1ccc(Cl)cc1`
[A] y

[Q] I'd appreciate it if you could say whether `[2H]C([2H])(O)C1(C([2H])([2H])O[C@]2(c3ccc(Cl)cc3)c3c(F)cc(C(C)(C)O)cc3C(=O)N2Cc2ccc(C#N)cn2)CC1` has CL/F at least equal to 9 mL/min/kg.
[A] y

[Q] Is the recorded value of CL/F equal to or greater than 9 mL/min/kg for this molecule? `[2H]C([2H])(O)C1(C([2H])([2H])O[C@]2(c3ccc(Cl)cc3)c3c(F)cc(C(C)(C)O)cc3C(=O)N2Cc2ccc(Cl)cn2)CC1`
[A] y

[Q] Could you tell me if the measured CL/F of `CC(C)(O)c1cc(F)c2c(c1)C(=O)N(Cc1ccc(Cl)cn1)[C@@]2(OCC1(C(N)=O)CC1)c1ccc(Cl)cc1` reaches 9 mL/min/kg or more?
[A] n

[Q] Answer whether CL/F of `[2H]C([2H])(O)C1(C([2H])([2H])O[C@]2(c3ccc(Cl)cc3)c3ccc(C(C)(C)O)cc3C(=O)N2Cc2ccc(Cl)cc2)CC1` is greater than or equal to 9 mL/min/kg.
[A] n

----------
- Target under test: CYP3A4 (Homo sapiens, UniProt P08684)
- Sequence (P08684 whole entry): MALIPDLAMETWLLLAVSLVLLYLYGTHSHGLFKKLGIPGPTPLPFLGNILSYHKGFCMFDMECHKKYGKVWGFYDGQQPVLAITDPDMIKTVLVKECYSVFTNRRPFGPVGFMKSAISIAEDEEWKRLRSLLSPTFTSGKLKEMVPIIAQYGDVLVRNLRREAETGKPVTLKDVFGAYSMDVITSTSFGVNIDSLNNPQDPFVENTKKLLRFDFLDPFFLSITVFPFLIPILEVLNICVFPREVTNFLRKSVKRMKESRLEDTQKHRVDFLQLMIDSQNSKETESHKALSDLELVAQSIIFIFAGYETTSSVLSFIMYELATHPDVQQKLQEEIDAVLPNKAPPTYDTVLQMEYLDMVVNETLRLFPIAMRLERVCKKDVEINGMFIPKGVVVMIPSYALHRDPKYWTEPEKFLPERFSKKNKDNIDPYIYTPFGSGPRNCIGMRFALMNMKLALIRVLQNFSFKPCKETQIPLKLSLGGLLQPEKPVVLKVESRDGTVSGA
- Test summary: Inhibition of CYP3A4 (unknown origin) using midazolam as substrate in presence of NADPH at 8 uM
- Type: ADME
- Experimental setup: probe midazolam
Measured parameter: inhibition at 8 µM (%)
Number only, in %; omit the unit.

The compound `[2H]C([2H])(O)C1(C([2H])([2H])O[C@]2(c3ccc(Cl)cc3)c3c(F)cc(C(C)(C)O)cc3C(=O)N2Cc2ccc(C#N)cn2)CC1` , when measured on CYP3A4 (Homo sapiens, UniProt P08684), yielded inhibition at 8 µM of 46

----------
- Test summary: Lipophilicity, logD of compound at pH 7.4 by Chromatography
- Assay type: physicochemical
- Experimental setup: buffer
Values of chromatographic logD strictly less than 5 map to class 1, and values of at least 5 map to class 0.

[Q] Record `COC1(CO[C@]2(c3ccc(Cl)cc3)c3c(F)cc(C(C)(C)O)cc3C(=O)N2Cc2ccc(Cl)cn2)CC1` : is its chromatographic logD strictly below 5?
[A] class 0

[Q] Does the reported chromatographic logD of the following compound sit strictly below 5? `[2H]C([2H])(O)C1(C([2H])([2H])O[C@]2(c3ccc(Cl)cc3)c3c(F)cc(C(C)(C)O)cc3C(=O)N2Cc2ccc(Cl)cn2)CC1`
[A] class 1

[Q] Given the entry `[2H]C([2H])(O)C1(C([2H])([2H])O[C@]2(c3ccc(Cl)cc3)c3c(F)cc(C(C)(C)O)cc3C(=O)N2Cc2ncc(C#N)cn2)CC1` , would its reported chromatographic logD be below 5?
[A] class 1

[Q] Quick check: chromatographic logD of `CC(C)(O)c1cc(F)c2c(c1)C(=O)N(Cc1ccc(Cl)cn1)[C@@]2(OCC1(C#N)CC1)c1ccc(Cl)cc1` under 5?
[A] class 1

[Q] State whether 5 exceeds chromatographic logD recorded for `CC(=O)NC1(CO[C@]2(c3ccc(Cl)cc3)c3c(F)cc(C(C)(C)O)cc3C(=O)N2Cc2ccc(Cl)cn2)CC1` .
[A] class 1

----------
- Tested on: SJSA-1
- Test summary: Antiproliferative activity against human SJSA-1 cells expressing wild type TP53 incubated for 72 hrs by Sulforhodamine B assay
- Type: functional
I'd appreciate it if you could supply GI50 values for the items below.
State just the number; it will be interpreted in nM.

Consider `CC(=O)NC1(CO[C@]2(c3ccc(Cl)cc3)c3c(F)cc(C(C)(C)O)cc3C(=O)N2Cc2ccc(Cl)cn2)CC1` . Its measured GI50 is 970

Memo: `[2H]C([2H])(O)C1(C([2H])([2H])O[C@]2(c3ccc(Cl)cc3)c3c(F)cc(C(C)(C)O)cc3C(=O)N2Cc2ccc(C)nn2)CC1` , reported GI50: 1500

Please fill in: GI50 reported for CC(C)(O)c1ccc2c(c1)C(=O)N(Cc1ccc(Cl)cc1)C2(OCC1(C(=O)O)CC1)c1ccc(Cl)cc1 (racemic) = 9600

Consider `CO[C@]1(c2ccc(Cl)cc2)c2c(F)cc(C(C)(C)O)cc2C(=O)N1Cc1ccc(Cl)cn1` . Its measured GI50 is 1700

Reported GI50 ( `[2H]C([2H])(O)C1(C([2H])([2H])O[C@]2(c3ccc(Cl)cc3)c3ccc(C(C)(C)O)cc3C(=O)N2Cc2ccc(Cl)cc2S(C)(=O)=O)CC1` ) = 79

Lab book: GI50 of `O=C1c2cccc(Cl)c2[C@](OCC2(CO)CC2)(c2ccc(Cl)cc2)N1Cc1ccc([N+](=O)[O-])cc1` noted as 2200

Memo: `CC(C)(O)c1cc(F)c2c(c1)C(=O)N(Cc1ccc(Cl)cn1)[C@@]2(OCC1(S(C)(=O)=O)CC1)c1ccc(Cl)cc1` , reported GI50: 610

Looking up `CNC(=O)C1(CO[C@]2(c3ccc(Cl)cc3)c3c(F)cc(C(C)(C)O)cc3C(=O)N2Cc2ccc(Cl)cn2)CC1` , I found its GI50 recorded as 710

Entry under test: `[2H]C([2H])(O)C1(C([2H])([2H])O[C@]2(c3ccc(Cl)cc3)c3c(F)cc(C(C)(C)O)cc3C(=O)N2Cc2ccc(C#N)cn2)CC1` . Its GI50 was 200

So, `COC1(CO[C@]2(c3ccc(Cl)cc3)c3c(F)cc(C(C)(C)O)cc3C(=O)N2Cc2ccc(Cl)cn2)CC1` ? Its GI50 was 520

Data point: `[2H]C([2H])(O)C1(C([2H])([2H])O[C@]2(c3ccc(Cl)cc3)c3c(F)cc(C(C)(C)O)cc3C(=O)N2Cc2ncc(C#N)cn2)CC1` ; GI50 = 260

So for `CC(C)(O)c1ccc2c(c1)C(=O)N(Cc1ccc(Cl)cn1)[C@@]2(OCC1(CO)CC1)c1ccc(Cl)cc1` , the logged GI50 turned out to be 110

# molecule `CC(C)(O)c1cc(F)c2c(c1)C(=O)N(Cc1ccc(Cl)cn1)[C@@]2(OCC1(N)CC1)c1ccc(Cl)cc1` ; its GI50 = 510

Lab note: measured GI50 of `C#Cc1ccc(CN2C(=O)c3cccc(Cl)c3[C@]2(OCC2(CO)CC2)c2ccc(Cl)cc2)cc1` was 2300

For this molecule ( `CC(C)(O)c1cc(F)c2c(c1)C(=O)N(Cc1ccc(Cl)cn1)[C@@]2(OCC1(O)CC1)c1ccc(Cl)cc1` ), measured GI50 is 230

----------
- Test summary: Plasma protein binding in BALB/c mouse incubated for 48 hrs
- Format: ADME, cell-free
- Experimental setup: read-out: PPB (converted)
Sorting guide: entries reporting fraction unbound at 48 h beneath 0.03 go in the fulfilled pile, the rest go in the not fulfilled pile.

[Q] Strictly below 0.03 in fraction unbound at 48 h? `[2H]C([2H])(O)C1(C([2H])([2H])O[C@]2(c3ccc(Cl)cc3)c3ccc(C(C)(C)O)cc3C(=O)N2Cc2ccc(Cl)cc2)CC1`
[A] fulfilled

[Q] Input `[2H]C([2H])(O)C1(C([2H])([2H])O[C@]2(c3ccc(Cl)cc3)c3c(F)cc(C(C)(C)O)cc3C(=O)N2Cc2ccc(C#N)cn2)CC1` ; condition: fraction unbound at 48 h strictly below 0.03. Does it hold?
[A] not fulfilled

[Q] Is it true that fraction unbound at 48 h reported for `[2H]C([2H])(O)C1(C([2H])([2H])O[C@]2(c3ccc(Cl)cc3)c3c(F)cc(C(C)(C)O)cc3C(=O)N2Cc2ccc(Cl)cn2)CC1` is less than 0.03?
[A] fulfilled

[Q] Take the compound `CC(C)(O)c1cc(F)c2c(c1)C(=O)N(Cc1ccc(Cl)cn1)[C@@]2(OCC1(O)CC1)c1ccc(Cl)cc1` and say whether its fraction unbound at 48 h is less than 0.03.
[A] fulfilled

[Q] Determine if `CC(C)(O)CCO[C@]1(c2ccc(Cl)cc2)c2ccc(C(C)(C)O)cc2C(=O)N1Cc1ccc(Cl)cc1` shows fraction unbound at 48 h strictly lower than 0.03.
[A] fulfilled

[Q] Lab log: compare recorded fraction unbound at 48 h with 0.03; is it strictly lower for `CC(C)(O)c1cc(F)c2c(c1)C(=O)N(Cc1ccc(Cl)cn1)[C@@]2(OCC1(C(N)=O)CC1)c1ccc(Cl)cc1` ?
[A] not fulfilled

[Q] I'd appreciate it if you could check whether `CC(C)(O)c1ccc2c(c1)C(=O)N(Cc1ccc(Cl)cc1)[C@@]2(OCC1(CO)CC1)c1ccc(Cl)cc1` has fraction unbound at 48 h smaller than 0.03.
[A] fulfilled

[Q] Please determine if CC(C)(O)c1ccc2c(c1)C(=O)N(Cc1ccc(Cl)cc1)C2(OCC1(C(=O)O)CC1)c1ccc(Cl)cc1 (racemic) is below 0.03 in terms of fraction unbound at 48 h.
[A] fulfilled
